# Assay Remarks: PK of compound of Formula (Ia) after single intramuscular dose of solution formulations in Wistar Han rats
# Type: in vivo
# Condition Context: male, Wistar Han, rat, plasma, intramuscular, 100 mg/kg, Solution J (~400 mg/mL, poloxamer 188); IM 100 mg/kg; Wistar Han rats; individual animals #1-#4; 24.0 h; read-out: Plasma concentration
Property: concentration at 24 h (µM)
// return numeric value only (unit: µM, not printed)

Field request: concentration at 24 h | item: CC(C)(C#Cc1ccc(-c2ccc(Cl)c3c(NS(C)(=O)=O)nn(CC(F)(F)F)c23)c([C@H](Cc2cc(F)cc(F)c2)NC(=O)Cn2nc(C(F)(F)F)c3c2C(F)(F)[C@@H]2C[C@H]32)n1)S(C)(=O)=O
0.761

* * *

# Assay Remarks: PK of compound of Formula (Ia) after single intramuscular dose of solution formulations in Wistar Han rats
# Format: in vivo
# Condition Context: male, Wistar Han, rat, plasma, im, 100 mg/kg, Solution M (~500 mg/mL; Na salt, water, PEG 300, ethanol, poloxamer 188); single IM 100 mg/kg; male Wistar Han rats; mean ± SD, n = 4; read-out: AUC0-168h
Property: AUC(0-t) (µM·h)
// return numeric value only (unit: µM·h, not printed)

Field request: AUC(0-t) | item: CC(C)(C#Cc1ccc(-c2ccc(Cl)c3c(NS(C)(=O)=O)nn(CC(F)(F)F)c23)c([C@H](Cc2cc(F)cc(F)c2)NC(=O)Cn2nc(C(F)(F)F)c3c2C(F)(F)[C@@H]2C[C@H]32)n1)S(C)(=O)=O
92.9

* * *

# Assay Remarks: PK of compound of Formula (Ia) after single intramuscular dose of solution formulations in Wistar Han rats
# Assay type: in vivo
# Condition Context: male, Wistar Han, rat, plasma, intramuscular, 100 mg/kg, 3.00 h; mean, n = 4 rats; IM 100 mg/kg; solution M, 500 mg/mL; read-out: Plasma concentration
Property: concentration at 3 h (nM)
// return numeric value only (unit: nM, not printed)

Field request: concentration at 3 h | item: CC(C)(C#Cc1ccc(-c2ccc(Cl)c3c(NS(C)(=O)=O)nn(CC(F)(F)F)c23)c([C@H](Cc2cc(F)cc(F)c2)NC(=O)Cn2nc(C(F)(F)F)c3c2C(F)(F)[C@@H]2C[C@H]32)n1)S(C)(=O)=O
405

* * *

# Assay Remarks: PK of compound of Formula (Ia) after single subcutaneous dose of solution formulations in beagle dogs
# Format: in vivo
# Condition Context: male, beagle, dog, plasma, sc, 12 mg/kg, beagle dogs, SC 12 mg/kg, 400 mg/mL solution W (5.00% ethanol, 1.57% poloxamer 188), 24.0 h, animals #1-#3
Property: concentration at 24 h (nM)
// return numeric value only (unit: nM, not printed)

Field request: concentration at 24 h | item: CC(C)(C#Cc1ccc(-c2ccc(Cl)c3c(NS(C)(=O)=O)nn(CC(F)(F)F)c23)c([C@H](Cc2cc(F)cc(F)c2)NC(=O)Cn2nc(C(F)(F)F)c3c2C(F)(F)[C@@H]2C[C@H]32)n1)S(C)(=O)=O
35.4

* * *

# Assay Remarks: PK of compound of Formula (Ia) after single intramuscular dose of solution formulations in Wistar Han rats
# Type: in vivo
# Condition Context: Wistar Han, rat, plasma, intramuscular, 100 mg/kg, Solution K (~500 mg/mL, ethanol); IM 100 mg/kg; Wistar Han rats; individual animals #1-#4; 96.0 h; read-out: Plasma concentration
# Procedure: Formulations containing the compound of Formula (Ia), or a pharmaceutically acceptable salt thereof, were prepared as solutions and optionally administered subcutaneously or intramuscularly to rats, rabbits, and/or dogs. A solution of about 400 mg/ml of the compound of Formula (Ia) having 21.13 w/w % water, 45.25 w/w % PEG 300, and 33.61 w/w % of a sodium salt of a compound of Formula (Ia) was prepared. […]
Property: concentration at 96 h (nM)
// return numeric value only (unit: nM, not printed)

Field request: concentration at 96 h | item: CC(C)(C#Cc1ccc(-c2ccc(Cl)c3c(NS(C)(=O)=O)nn(CC(F)(F)F)c23)c([C@H](Cc2cc(F)cc(F)c2)NC(=O)Cn2nc(C(F)(F)F)c3c2C(F)(F)[C@@H]2C[C@H]32)n1)S(C)(=O)=O [compound of Formula (Ia)]
537
